experiment: Cytotoxicity against human CEM cells assessed as reduction in cell growth incubated for 5 days by CellTiter 96 AQueous One Solution cell proliferation assay; format: cell-based, CCRF-CEM; conditions: CEM (CCRF-CEM) cells
# key: entry, value: CC50 at 120 h
measured.attribute: CC50 at 120 h (µM)

- smiles.representation: "CCOC(=O)c1c(-c2ccc(OC)cc2)nc(=O)n(Cc2ccc(C(=O)/C=C(\\O)C(=O)OC(C)C)cc2)c1-c1ccccc1"
  experimental.value: 25.3
- smiles.representation: "CCOC(=O)c1c(-c2ccccc2)nc(=O)n(Cc2ccc(Cc3cccc(C(=O)/C=C(\\O)C(=O)OC(C)C)c3)cc2)c1CC"
  experimental.value: 8.9
